Reference for the values: ChEMBL document CHEMBL5154896

Papp A→B listing for selected compounds.
assay: Apparent permeability across apical to basolateral membrane in MDCK-MDR1 cells by LC-MS/MS analysis; conditions: dog
Numbers only here, please. The scale is ×10⁻⁶ cm/s.

stdin: Can you share its Papp A→B? I mean this compound: "O=c1[nH]cc(CCc2ccc(-c3cc(O)n[nH]3)c(F)c2)[nH]c1=O"
stdout: 21

stdin: Can you share its Papp A→B? I mean this compound: "N#Cc1ccc2c(c1)OC[C@@H](c1c[nH]c(=O)c(=O)[nH]1)S2"
stdout: 3.1

Next:
stdin: Can you share its Papp A→B? I mean this compound: "O=c1[nH]c2ccsc2[nH]c1=O"
stdout: 8.8

stdin: Can you share its Papp A→B? I mean this compound: "O=c1[nH]c(=O)n(O)cc1CCc1ccccc1"
stdout: 15

stdin: Can you share its Papp A→B? I mean this compound: "Cc1[nH]c(=O)c(=O)[nH]c1CCc1ccc(C(F)(F)F)cc1"
stdout: 4.8

stdin: Can you share its Papp A→B? I mean this compound: "O=c1[nH]cc(CCc2cccc(Cl)c2)[nH]c1=O"
stdout: 6.8

====

EC50 listing for selected compounds.
target: D-amino-acid oxidase (Mus musculus, UniProt P18894); assay: Inhibition of full length mouse DAO transfected with CHO-K1 cells incubated for 30 mins by Amplex red and horseradish peroxidase based fluorescence assay
Sequence (P18894 whole entry): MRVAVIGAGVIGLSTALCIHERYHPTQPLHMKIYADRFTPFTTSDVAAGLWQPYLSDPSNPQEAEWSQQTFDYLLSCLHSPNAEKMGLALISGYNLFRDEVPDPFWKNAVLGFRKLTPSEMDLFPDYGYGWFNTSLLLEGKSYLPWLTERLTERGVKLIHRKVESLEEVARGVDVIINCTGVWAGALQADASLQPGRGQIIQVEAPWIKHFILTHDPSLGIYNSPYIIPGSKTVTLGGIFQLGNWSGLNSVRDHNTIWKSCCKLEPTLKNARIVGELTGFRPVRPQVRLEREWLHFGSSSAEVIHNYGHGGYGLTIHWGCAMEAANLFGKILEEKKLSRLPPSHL
Please report the result as a number followed by the unit.

These recorded examples may help you get a feel for the data.
stdin: Can you share its EC50? I mean this compound: "N#Cc1ccc(CSc2c[nH]c(=O)c(=O)[nH]2)cc1F"
stdout: 0.68 µM

stdin: Can you share its EC50? I mean this compound: "O=c1[nH]cc(CSc2ccc(Cl)cc2)[nH]c1=O"
stdout: 0.39 µM

stdin: Can you share its EC50? I mean this compound: "O=c1[nH]cc([C@@H]2COc3cc(C(F)F)ccc3S2)[nH]c1=O"
stdout: 0.29 µM

stdin: Can you share its EC50? I mean this compound: "O=c1[nH]cc(SCc2ccc(C(F)(F)F)nc2)[nH]c1=O"
stdout: 0.59 µM

stdin: Can you share its EC50? I mean this compound: "O=c1[nH]cc(SCc2ccc(Cl)cc2)[nH]c1=O"
stdout: 0.51 µM

Next:
stdin: Can you share its EC50? I mean this compound: "N#Cc1ccc(CSc2c[nH]c(=O)c(=O)[nH]2)cc1"
stdout: 0.31 µM

====

biological target: D-amino-acid oxidase (Mus musculus); experiment: Inhibition of full length mouse DAO transfected with CHO-K1 cells incubated for 30 mins by Amplex red and horseradish peroxidase based fluorescence assay
EC50 listing for selected molecules.

stdin: Find EC50 (D-amino-acid oxidase (Mus musculus)) for the entry "C[C@@]1(c2c[nH]c(=O)c(=O)[nH]2)COc2cc(C#N)ccc2S1"
stdout: 0.12 µM

Next:
stdin: Find EC50 (D-amino-acid oxidase (Mus musculus)) for the entry O=c1[nH]cc(C2COc3cc(C(F)(F)F)ccc3S2)[nH]c1=O (stereo unspecified)
stdout: 0.43 µM

stdin: Find EC50 (D-amino-acid oxidase (Mus musculus)) for the entry "O=c1[nH]cc(CSc2ccc(C(F)F)cc2)[nH]c1=O"
stdout: 0.62 µM

stdin: Find EC50 (D-amino-acid oxidase (Mus musculus)) for the entry "O=c1[nH]cc([C@@H]2COc3cc(F)ccc3S2)[nH]c1=O"
stdout: 0.54 µM

stdin: Find EC50 (D-amino-acid oxidase (Mus musculus)) for the entry "N#Cc1[nH]c(=O)c(=O)[nH]c1CCc1ccc(C(F)(F)F)cc1"
stdout: 0.34 µM

stdin: Find EC50 (D-amino-acid oxidase (Mus musculus)) for the entry "O=c1[nH]cc(SCc2ccc(S(F)(F)(F)(F)F)cc2)[nH]c1=O"
stdout: 0.5 µM
